Activity calls are given as the source filed them.
# IC50 measurements, system: UniProt:P04406
# Sequence (P04406 whole entry): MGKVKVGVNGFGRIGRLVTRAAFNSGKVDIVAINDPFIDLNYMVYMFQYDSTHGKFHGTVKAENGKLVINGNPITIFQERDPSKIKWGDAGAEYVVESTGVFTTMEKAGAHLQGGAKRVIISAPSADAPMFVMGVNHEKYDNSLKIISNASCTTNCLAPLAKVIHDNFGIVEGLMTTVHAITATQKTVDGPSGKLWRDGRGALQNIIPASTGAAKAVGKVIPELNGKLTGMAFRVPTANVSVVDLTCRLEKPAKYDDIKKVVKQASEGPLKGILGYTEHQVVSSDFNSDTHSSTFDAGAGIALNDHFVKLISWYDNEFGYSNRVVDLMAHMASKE

A selection of reference data follows.
O=C(O)c1ccc(OCc2ccc(C(=O)O)o2)cc1	> 100 µM (not active)
COc1ccc(S(=O)(=O)n2cc(C(N)=O)c3ccccc32)cc1	> 100 µM (not active)
O=C(O)c1ccc2cccc(O)c2n1	> 100 µM (not active)

Qu. Please report the measured IC50 for O=S(=O)(Nc1ccc2ncccc2c1)c1ccccc1OC(F)(F)F tested on UniProt:P04406.
Ans. > 100 µM (not active)

Qu. Determine reported IC50 for COc1ccc(-n2c(=O)nc(NCCc3cccc(Cl)c3)[nH]c2=O)cc1 ; test system: UniProt:P04406.
Ans. > 100 µM (not active)

Qu. Give IC50 only, for CCCCOC(=O)c1ccc2c(c1)C1C=CCC1C(C(=O)O)N2 (stereo unspecified) , using UniProt:P04406 data.
Ans. 76.6 µM (active)

All figures here come from ChEMBL document CHEMBL1201862.
